system: Bacteroides caccae; assay: growth AUC relative to DMSO control (median of replicates) (fraction); higher = more growth (less inhibition), active = hit call of the paper; settings: 20 µM; 24 h
readout kind: growth AUC
# output: bare number, no unit

Solved cases below.
{"compound": "CNC(=O)/C(=N/OC)c1ccccc1Oc1ccccc1", "growth AUC": 1.01}
{"compound": "O=C(O)c1nc(Cl)ccc1Cl", "growth AUC": 1.01}
{"compound": "C=CCN=C=S", "growth AUC": 0.968}
{"compound": "Cc1cc(OC(=O)N(C)C)nn1C(=O)N(C)C", "growth AUC": 1.02}
{"compound": "CCCCC(CC)COC(=O)c1ccccc1C(=O)OCC(CC)CCCC (stereo not given)", "growth AUC": 0.989}

Incoming: Test system Bacteroides caccae; read-out growth AUC; what value for C=CCC1=C(C)C(OC(=O)C2C(C=C(C)C)C2(C)C)CC1=O (stereo not given) ?
Outgoing: 0.994

Incoming: Same question, CNC(=O)c1cc(Cl)cc(C)c1NC(=O)c1cc(Br)nn1-c1ncccc1Cl this time
Outgoing: 1

---

tested on: Eubacterium rectale; test: growth AUC relative to DMSO control (median of replicates) (fraction); higher = more growth (less inhibition), active = hit call of the paper; details: 20 µM; 24 h
readout kind: growth AUC
Answer with the value's number alone.

{"molecule": "CCNS(=O)(=O)C(F)(F)C(F)(F)C(F)(F)C(F)(F)C(F)(F)C(F)(F)C(F)(F)C(F)(F)F", "growth AUC": 0.975}
{"molecule": "O=C(O)COc1cc(Cl)c(Cl)cc1Cl", "growth AUC": 0.93}
{"molecule": "Nc1c(Cl)cc([N+](=O)[O-])cc1Cl", "growth AUC": 1.08}
{"molecule": "CCOP(=S)(NC(C)CC)Oc1cc(C)ccc1[N+](=O)[O-] (stereo unspecified)", "growth AUC": 0.919}
{"molecule": "CC(C)(C)C(O)(CCc1ccc(Cl)cc1)Cn1cncn1 (stereo unspecified)", "growth AUC": 0.879}

Switching to the query record.
Incoming: Suppose we examine the molecule CSc1nnc(C(C)(C)C)c(=O)n1N ; what growth AUC value has been reported?
Outgoing: 0.997

---

system: Collinsella aerofaciens; assay: growth AUC relative to DMSO control (median of replicates) (fraction); higher = more growth (less inhibition), active = hit call of the paper; conditions: 20 µM; 24 h
# reported growth AUC; entries follow
// no unit string in output, number only

Some compounds with recorded growth AUC:
{"compound": "CCOC(=O)CCN(Cc1ccccc1)SN(C)C(=O)O/N=C(/C)SC", "growth AUC": 1.02}
{"compound": "CNC(=O)Oc1cccc2c1OC(C)(C)C2O (stereo unspecified)", "growth AUC": 1.01}

Kindly consider the entry below.
Incoming: Sample CCOP(=S)(OCC)Oc1nc(Cl)n(C(C)C)n1 — what was its growth AUC?
Outgoing: 1.02

---

system: Parabacteroides merdae; experiment: growth AUC relative to DMSO control (median of replicates) (fraction); higher = more growth (less inhibition), active = hit call of the paper; details: 20 µM; 24 h
readout kind: growth AUC
Number only, please.

{"compound": "COCc1cnc(C2=NC(C)(C(C)C)C(=O)N2)c(C(=O)O)c1 (configuration not stated)", "growth AUC": 0.987}
{"compound": "COP(=S)(OC)Oc1cc(Cl)c(I)cc1Cl", "growth AUC": 0.964}
{"compound": "Clc1c(Cl)c(Cl)c(Cl)c(Cl)c1Cl", "growth AUC": 1.03}
{"compound": "CCOC(=O)CC(SP(=S)(OC)OC)C(=O)OCC (configuration not stated)", "growth AUC": 1.01}
{"compound": "Cc1ccc(-c2c(Cl)nc(C#N)n2S(=O)(=O)N(C)C)cc1", "growth AUC": 0.818}
{"compound": "C1=Cc2cccc3cccc1c23", "growth AUC": 1.02}
{"compound": "Cc1cc(C)c(C2=C(OC(=O)CC(C)(C)C)C3(CCCC3)OC2=O)c(C)c1", "growth AUC": 1.04}
{"compound": "CCSC(C)CC1CC(=O)C(/C(CC)=N/OC/C=C/Cl)=C(O)C1 (mixture of isomers)", "growth AUC": 1.02}
{"compound": "COC(=O)NC(=S)Nc1ccccc1NC(=S)NC(=O)OC", "growth AUC": 1.03}
{"compound": "COCCN(C(=O)CCl)c1c(C)cccc1C", "growth AUC": 0.985}

Incoming: I would be grateful if you could share the reported growth AUC for Oc1ccc(Cl)cc1Cl .
Outgoing: 0.853

Incoming: Entry COP(=S)(OC)Oc1c(Cl)cc(C)cc1Cl please
Outgoing: 0.998

Incoming: Do the same for O=P(O)(O)CCCl please
Outgoing: 1

Incoming: Now consider CNC(=O)/C=C(\C)OP(=O)(OC)OC and answer again.
Outgoing: 1.01

Incoming: Record: O=C1C(Cl)=C(Cl)C(=O)c2ccccc21
Outgoing: 0.967

---

tested on: Coprococcus comes; test: growth AUC relative to DMSO control (median of replicates) (fraction); higher = more growth (less inhibition), active = hit call of the paper; settings: 20 µM; 24 h
readout kind: growth AUC
The answer should be written as a number, with no unit following it.

{"compound": "O=C(NC(=O)c1c(F)cccc1F)Nc1ccc(Oc2ccc(C(F)(F)F)cc2Cl)cc1F", "growth AUC": 1}
{"compound": "COP(=O)(OC)O/C(=C\\Cl)c1ccc(Cl)cc1Cl", "growth AUC": 1.06}
{"compound": "ClC(Cl)=C(c1ccc(Cl)cc1)c1ccc(Cl)cc1", "growth AUC": 0.914}
{"compound": "CCOP(=O)(NC(C)C)Oc1ccc(S(C)=O)c(C)c1 (stereo not drawn)", "growth AUC": 1.04}

Incoming: # input compound: Cc1nnc(-c2ccccc2)c(=O)n1N ; wanted: its growth AUC
Outgoing: 1

Incoming: Now this one: C=C(C)CN(CC)c1c([N+](=O)[O-])cc(C(F)(F)F)cc1[N+](=O)[O-]
Outgoing: 0.985

---

tested on: Fusobacterium nucleatum subsp. animalis; assay: growth AUC relative to DMSO control (median of replicates) (fraction); higher = more growth (less inhibition), active = hit call of the paper; conditions: 20 µM; 24 h
readout kind: growth AUC
Answer as a number with no unit attached.

Incoming: Enter reported growth AUC observed with Fusobacterium nucleatum subsp. animalis for CC(=O)O.CCCCCCCCCCCCN=C(N)N
Outgoing: 1.04

---

test system: Odoribacter splanchnicus; experiment: growth AUC relative to DMSO control (median of replicates) (fraction); higher = more growth (less inhibition), active = hit call of the paper; details: 20 µM; 24 h
We begin with a simple list: items and their reported growth AUC.
Number only, no unit.

Here are 6 molecules together with their reported answers.
{"molecule": "CC(Oc1ccc(Oc2ccc(C(F)(F)F)cn2)cc1)C(=O)O (stereo not given)", "growth AUC": 0.766}
{"molecule": "CC#Cc1cc(C)nc(Nc2ccccc2)n1", "growth AUC": 1.06}
{"molecule": "COC(=O)N(C(=O)N1CO[C@@]2(C(=O)OC)Cc3cc(Cl)ccc3C2=N1)c1ccc(OC(F)(F)F)cc1", "growth AUC": 0.994}
{"molecule": "Cc1c(COC(=O)[C@@H]2[C@H](/C=C(\\Cl)C(F)(F)F)C2(C)C)cccc1-c1ccccc1", "growth AUC": 1.03}
{"molecule": "C#CCOS(=O)OC1CCCCC1Oc1ccc(C(C)(C)C)cc1 (mixture of isomers)", "growth AUC": 0.946}
{"molecule": "ClCC1C(CCl)C2(Cl)C(Cl)=C(Cl)C1(Cl)C2(Cl)Cl (stereo not given)", "growth AUC": 1.06}

Incoming: May I ask what growth AUC has been recorded for CNC(=O)Oc1cc(C)c(S(C)(=O)=O)c(C)c1 ?
Outgoing: 1.01

Incoming: Field entry: CC(Oc1ccc(Oc2ncc(C(F)(F)F)cc2Cl)cc1)C(=O)O (stereo not given)
Outgoing: 1.04

Incoming: Queued: CN(C)C(CSS(=O)(=O)[O-])CSS(=O)(=O)[O-].[Na+].[Na+]
Outgoing: 0.951

Incoming: Queued: Cc1cccc(C)c1N
Outgoing: 1.03

---

tested on: Streptococcus salivarius; assay: growth AUC relative to DMSO control (median of replicates) (fraction); higher = more growth (less inhibition), active = hit call of the paper; conditions: 20 µM; 24 h
Entries and their growth AUC
The reply should be a number, written without any unit.

Worked set:
{"molecule": "CC1(C)[C@H](/C=C(\\Cl)C(F)(F)F)[C@@H]1C(=O)O[C@@H](C#N)c1cccc(Oc2ccccc2)c1", "target": "Streptococcus salivarius", "readout kind": "growth AUC", "measured value": 0.957}
{"molecule": "CCSC(=O)N(CC)C1CCCCC1", "target": "Streptococcus salivarius", "readout kind": "growth AUC", "measured value": 0.948}

Incoming: Please provide the recorded growth AUC for CCNC(=O)NC(=O)/C(C#N)=N/OC , tested on Streptococcus salivarius.
Outgoing: 0.949

Incoming: Then what about the molecule CCCSP(=S)(OCC)Oc1ccc(SC)cc1 (stereo unspecified) ?
Outgoing: 0.93
